Test system: HCT-8 cells
Assay: In vitro proliferating human colon adenocarcinoma (HCA) cell screen, HCT-8 cells;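 note: ID50 is the molar concentration giving 50% growth inhibition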
Format: cell-based
Conditions: 60-65 hours at 37° C., value is ID50 multiplied by 10^7
pIC50: −log10 of the molar value.
pIC50 values by entry

| Compound | Target system | pIC50 |
| --- | --- | --- |
| CN(C)CCCNc1ccc([N+](=O)[O-])c2[nH]c3ccccc3c(=O)c12.CS(=O)(=O)O | HCT-8 cells | 6.70 |
| CCN(CC)CCNc1ccc([N+](=O)[O-])c2[nH]c3ccc(N(C)C)cc3c(=O)c12.CS(=O)(=O)O | HCT-8 cells | 6.25 |
| CCOc1ccc2[nH]c3c([N+](=O)[O-])ccc(NCCN(CC)CC)c3c(=O)c2c1.CS(=O)(=O)O | HCT-8 cells | 6.40 |
| CCOc1ccc2[nH]c3c([N+](=O)[O-])ccc(NC(C)CN(C)C)c3c(=O)c2c1 (centres unmarked) | HCT-8 cells | 6.30 |
| CN(C)CCCNc1ccc([N+](=O)[O-])c2[nH]c3ccc(O)cc3c(=O)c12 | HCT-8 cells | 8.55 |
| CCOc1ccc2[nH]c3c([N+](=O)[O-])ccc(NCCCN(C)C)c3c(=O)c2c1.CS(=O)(=O)O [Example 23, methanesulfonate] | HCT-8 cells | 6.70 |
| CCOc1ccc2[nH]c3c([N+](=O)[O-])ccc(NCCN(C)C)c3c(=O)c2c1.CS(=O)(=O)O | HCT-8 cells | 6.44 |
| CCN(CC)CCNc1ccc([N+](=O)[O-])c2[nH]c3ccc(O)cc3c(=O)c12 | HCT-8 cells | 8.35 |

---

MIC values by entry
Test system: Corynebacterium Sp. ATCC 21698

| Smiles record | Result unit | Inequality sign | MIC |
| --- | --- | --- | --- |
| CCN(CC)CCNc1ccc([N+](=O)[O-])c2[nH]c3ccc(N(C)C)cc3c(=O)c12.CS(=O)(=O)O | µg/mL | = | 111 |
| CCN(CC)CCNc1ccc([N+](=O)[O-])c2c1c(=O)c1cc(OC)ccc1n2C.CS(=O)(=O)O | µg/mL | = | 1000 |
| CCN(CC)CCNc1ccc([N+](=O)[O-])c2[nH]c3ccc(OC)cc3c(=O)c12.CS(=O)(=O)O | µg/mL | < | 0.46 |
| CCCOc1ccc2[nH]c3c([N+](=O)[O-])ccc(NCCN(CC)CC)c3c(=O)c2c1.CS(=O)(=O)O | µg/mL | = | 0.46 |

---

response vs control in vivo at 100 mg/kg values by entry
System: lymphocytic leukemia P388
Experiment: In vivo lymphocytic leukemia P388 test
Set-up: species or system CD2 F1 mice
Settings: Mus musculus, P388, ip; 100 mg/kg, intraperitoneal, once daily for five days; survival time treated/control; read-out: P388 in vivo T/C × 100

| Molecule | response vs control in vivo at 100 mg/kg / % |
| --- | --- |
| CCOc1ccc2[nH]c3c([N+](=O)[O-])ccc(NCCN(CCO)CCO)c3c(=O)c2c1 [Example 19, hydrate] | 130 |
| CCCOc1ccc2[nH]c3c([N+](=O)[O-])ccc(NCCN(CC)CC)c3c(=O)c2c1.CS(=O)(=O)O [Example 5, methanesulfonate] | 164 |
| CCOc1ccc2[nH]c3c([N+](=O)[O-])ccc(NCCN(CC)CC)c3c(=O)c2c1.CS(=O)(=O)O | 273 |
| CCN(CC)CCNc1ccc([N+](=O)[O-])c2c1c(=O)c1cc(OC)ccc1n2C.CS(=O)(=O)O | 128 |
| COc1ccc2c(c1)c(=O)c1c(NCCCN(C)C)ccc([N+](=O)[O-])c1n2C.CS(=O)(=O)O | 136 |
| CCN(CC)CCNc1ccc([N+](=O)[O-])c2[nH]c3ccc(OC)cc3c(=O)c12.CS(=O)(=O)O | 237 |
| CCN(CC)CCCNc1ccc([N+](=O)[O-])c2[nH]c3ccc(OC)cc3c(=O)c12 | 198 |
| CN(C)CCNc1ccc([N+](=O)[O-])c2c1c(=O)c1ccccc1n2C.CS(=O)(=O)O | 146 |

---

Test system: HCT-8 cells
Assay: In vitro proliferating human colon adenocarcinoma (HCA) cell screen, HCT-8 cells;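 note: ID50 is the molar concentration giving 50% growth inhibition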
Type: cell-based
Conditions: 60-65 hours at 37° C., value is ID50 multiplied by 10^7
Quick rule for you: IC50 under 300 nM gets Criterion met, anything else gets Criterion not met.

| Molecule | Cat |
| --- | --- |
| CCOc1ccc2[nH]c3c([N+](=O)[O-])ccc(NCCNCCO)c3c(=O)c2c1.CS(=O)(=O)O [Example 17, methanesulfonate] | Criterion met |
| CCCCOc1ccc2[nH]c3c([N+](=O)[O-])ccc(NCCCN(C)C)c3c(=O)c2c1.CS(=O)(=O)O [Example 24, methanesulfonate] | Criterion not met |
| O=c1c2ccccc2[nH]c2c([N+](=O)[O-])ccc(NCCNCCO)c12 | Criterion met |
| CCN(CC)CCNc1ccc([N+](=O)[O-])c2[nH]c3ccc(OC)cc3c(=O)c12.CS(=O)(=O)O | Criterion not met |
| COc1ccc2c(c1)c(=O)c1c(NCCCN(C)C)ccc([N+](=O)[O-])c1n2C.CS(=O)(=O)O | Criterion not met |
| COc1ccc2[nH]c3c([N+](=O)[O-])ccc(NCCN(C)C)c3c(=O)c2c1.CS(=O)(=O)O | Criterion not met |
| CCN(CC)CCCNc1ccc([N+](=O)[O-])c2[nH]c3ccc(OC)cc3c(=O)c12 | Criterion met |

---

Tested on: lymphocytic leukemia P388
Assay: In vivo lymphocytic leukemia P388 test
Design: species or system CD2 F1 mice
Settings: Mus musculus, P388, ip; 200 mg/kg, intraperitoneal, once daily for five days; survival time treated/control; read-out: P388 in vivo T/C × 100

| Compound | response vs control in vivo at 200 mg/kg |
| --- | --- |
| COc1ccc2c(c1)c(=O)c1c(NCCN(C)C)ccc([N+](=O)[O-])c1n2C | 144% |
| CCN(CC)CCNc1ccc([N+](=O)[O-])c2c1c(=O)c1ccccc1n2C | 147% |
| CCN(CC)CCNc1ccc([N+](=O)[O-])c2[nH]c3ccc(OC)cc3c(=O)c12.CS(=O)(=O)O | 296% |
| CCN(CC)CCNc1ccc([N+](=O)[O-])c2c1c(=O)c1cc(OC)ccc1n2C.CS(=O)(=O)O | 128% |
| COc1ccc2[nH]c3c([N+](=O)[O-])ccc(NC(C)CN(C)C)c3c(=O)c2c1 (stereo not drawn) [Example 12, hydrate] | 245% |
| CCOc1ccc2[nH]c3c([N+](=O)[O-])ccc(NCCN(CCO)CCO)c3c(=O)c2c1 [Example 19, hydrate] | 147% |
| CCCOc1ccc2[nH]c3c([N+](=O)[O-])ccc(NCCN(CC)CC)c3c(=O)c2c1.CS(=O)(=O)O [Example 5, methanesulfonate] | 186% |
| CCOc1ccc2[nH]c3c([N+](=O)[O-])ccc(NCCN(C)C)c3c(=O)c2c1.CS(=O)(=O)O | 260% |
| COc1ccc2[nH]c3c([N+](=O)[O-])ccc(NCCN(C)C)c3c(=O)c2c1.CS(=O)(=O)O | 269% |

---

Tested on: lymphocytic leukemia P388
Experiment: In vivo lymphocytic leukemia P388 test
Parameters: species or system CD2 F1 mice
Conditions: Mus musculus, P388, ip; 12.5 mg/kg, intraperitoneal, once daily for five days; survival time treated/control; read-out: P388 in vivo T/C × 100
Attribute measured: response vs control in vivo at 12.5 mg/kg (%)

| Molecule | Result unit | Reported measurement |
| --- | --- | --- |
| CCOc1ccc2[nH]c3c([N+](=O)[O-])ccc(NCCN(CC)CC)c3c(=O)c2c1.CS(=O)(=O)O | % | 129 |
| COc1ccc2[nH]c3c([N+](=O)[O-])ccc(NCCCN(C)C)c3c(=O)c2c1 [Example 22, hemihydrate] | % | 156 |
| CCCOc1ccc2[nH]c3c([N+](=O)[O-])ccc(NCCN(CC)CC)c3c(=O)c2c1.CS(=O)(=O)O [Example 5, methanesulfonate] | % | 122 |
| CCN(CC)CCCNc1ccc([N+](=O)[O-])c2[nH]c3ccc(OC)cc3c(=O)c12 | % | 127 |
| CN(C)CCCNc1ccc([N+](=O)[O-])c2[nH]c3ccc(OC(=O)C(C)(C)C)cc3c(=O)c12 [Example 25, hemihydrate] | % | 248 |
| CCCCOc1ccc2[nH]c3c([N+](=O)[O-])ccc(NCCNCCO)c3c(=O)c2c1 [Example 18, hydrate] | % | 121 |
| CCN(CC)CCNc1ccc([N+](=O)[O-])c2[nH]c3ccc(O)cc3c(=O)c12 | % | 250 |
| CCOc1ccc2[nH]c3c([N+](=O)[O-])ccc(NCCCN(C)C)c3c(=O)c2c1.CS(=O)(=O)O [Example 23, methanesulfonate] | % | 135 |
| CCN(CC)CCNc1ccc([N+](=O)[O-])c2[nH]c3ccc(OC)cc3c(=O)c12.CS(=O)(=O)O | % | 126 |
| CCCCOc1ccc2[nH]c3c([N+](=O)[O-])ccc(NCCCN(C)C)c3c(=O)c2c1.CS(=O)(=O)O [Example 24, methanesulfonate] | % | 123 |
